# Assay Procedure: Nuclear factor erythroid 2-related factor 2/antioxidant responsive element (Nrf2/ARE) small molecule agonists: qHTS cell viability counter screen in human keratinocytes (AID 1919968); note: nearly all actives have a fitted effect of over 55% in size
# Assay Context: KeratinoSens HaCaT ARE cells viability, CellTiter-Fluor, 24 h; series mostly up to 92.4 µM
Results filed as inconclusive are left out. Activity calls are given as the source filed them. Calls come from the whole dose curve; as a rule, active = well fitted cell-killing curve with a large enough effect in the repeat runs; inconclusive = weak or mixed curves, or effect the other way; inactive = flat fitted curve, though single readings scatter.
// classify into true for active, false for inactive

Lookup: Dear colleague, could you share the recorded outcome for Cc1cc(NC(=O)C2=C(O)c3ccccc3S(=O)(=O)N2C)no1 when you have a moment?
Found: false

Lookup: Dear colleague, could you share the recorded outcome for CCCCCCCCCCCCCCNCCO when you have a moment?
Found: true

Lookup: Dear colleague, could you share the recorded outcome for C=CC1CC2C=CC1C2 (configuration not stated) when you have a moment?
Found: false

Lookup: Dear colleague, could you share the recorded outcome for CO[Si](OC)(OC)OC when you have a moment?
Found: false

Lookup: Dear colleague, could you share the recorded outcome for CCN(CC)CCNC(=O)COc1ccc(Cl)cc1 when you have a moment?
Found: false

Lookup: Dear colleague, could you share the recorded outcome for O=C1O[C@@H]2[C@@H](O)[C@H](O)O[C@@H]2[C@H]1O when you have a moment?
Found: false

Lookup: Dear colleague, could you share the recorded outcome for CCCCOc1ccc(OCCCN2CCOCC2)cc1 when you have a moment?
Found: false
